target: NR1a/2A receptors (Homo sapiens, UniProt Q05586+Q12879); construct: expressed in transfected cells; host or cells: Xenopus laevis oocytes injected with subunit RNA; experiment: NMDA receptor subtype expression in Xenopus oocytes, two-electrode voltage clamp; assay type: cell-based
Sequence (Q12879 23-1464, other chains not shown): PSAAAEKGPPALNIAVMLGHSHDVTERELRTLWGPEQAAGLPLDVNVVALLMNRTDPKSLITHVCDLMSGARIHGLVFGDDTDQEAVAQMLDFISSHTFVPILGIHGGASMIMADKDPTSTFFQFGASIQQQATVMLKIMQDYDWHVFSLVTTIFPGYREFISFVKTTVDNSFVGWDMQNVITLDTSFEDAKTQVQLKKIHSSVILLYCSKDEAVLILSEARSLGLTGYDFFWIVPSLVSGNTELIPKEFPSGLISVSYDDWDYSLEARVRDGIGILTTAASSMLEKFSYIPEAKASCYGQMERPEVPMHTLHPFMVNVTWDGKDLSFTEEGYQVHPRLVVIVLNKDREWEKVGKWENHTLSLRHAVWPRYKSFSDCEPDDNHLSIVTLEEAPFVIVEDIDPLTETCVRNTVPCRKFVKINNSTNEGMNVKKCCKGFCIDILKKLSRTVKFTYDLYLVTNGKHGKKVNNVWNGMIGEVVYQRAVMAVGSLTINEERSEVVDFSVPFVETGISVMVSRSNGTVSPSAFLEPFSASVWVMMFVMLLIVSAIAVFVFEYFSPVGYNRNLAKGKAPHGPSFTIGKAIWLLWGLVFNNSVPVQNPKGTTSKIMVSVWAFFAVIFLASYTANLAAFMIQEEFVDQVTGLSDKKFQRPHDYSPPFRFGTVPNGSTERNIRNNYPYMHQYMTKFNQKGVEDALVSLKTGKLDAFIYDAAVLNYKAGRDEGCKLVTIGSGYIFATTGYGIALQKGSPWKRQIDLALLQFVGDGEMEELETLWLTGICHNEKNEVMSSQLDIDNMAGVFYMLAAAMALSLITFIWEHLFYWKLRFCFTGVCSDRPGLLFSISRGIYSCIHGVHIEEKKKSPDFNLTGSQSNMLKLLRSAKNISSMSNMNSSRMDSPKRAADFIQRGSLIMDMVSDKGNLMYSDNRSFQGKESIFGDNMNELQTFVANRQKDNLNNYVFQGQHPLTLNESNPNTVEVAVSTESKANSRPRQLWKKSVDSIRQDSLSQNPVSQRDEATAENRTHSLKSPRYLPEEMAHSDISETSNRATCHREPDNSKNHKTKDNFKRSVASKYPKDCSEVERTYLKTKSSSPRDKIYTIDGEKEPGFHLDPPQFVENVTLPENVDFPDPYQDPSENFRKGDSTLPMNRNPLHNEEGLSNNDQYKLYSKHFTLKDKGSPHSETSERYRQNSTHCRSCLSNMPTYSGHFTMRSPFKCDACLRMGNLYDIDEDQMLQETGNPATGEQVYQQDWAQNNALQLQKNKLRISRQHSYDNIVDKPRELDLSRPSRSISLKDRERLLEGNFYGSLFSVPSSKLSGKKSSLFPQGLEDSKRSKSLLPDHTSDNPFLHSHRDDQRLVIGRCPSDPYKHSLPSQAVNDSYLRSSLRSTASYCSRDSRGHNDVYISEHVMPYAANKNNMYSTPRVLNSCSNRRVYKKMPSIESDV
Counter-ions that a name gives are not always drawn.
property-label: pIC50
Entry type: numeric. Quantity: pIC50, the -log10 of concentration in molar units.

Q: Would you mind telling me what pIC50 value was observed for CCC12CC(C)(C)CC(C)(CN1)C2 (stereo not drawn) [MRZ 2022, hydrochloride] ?
Ans: 4.86

Q: Try this compound too: CC1(C)CC(C)(C)CC2(CCCCN2)C1.Cl [MRZ 2/1013, hydrochloride]
Ans: 5.33

Q: Try this compound too: CC1(C)CC2(C)CNC(C)(C1)C2.Cl (stereo not drawn) [MRZ 2/1010, hydrochloride]
Ans: 6.12

====

tested on: tonic convulsions (MES); test: Maximal electroshock (MES) anticonvulsive test; format: in vivo, mice; details: Mus musculus, ip, read-out: MES ED50
property-label: ED50 (mg/kg)
Lab book: enter the figure in mg/kg, no units written.

Q: Would you mind telling me what ED50 value was observed for CN1CC2(C)CC(C)(C)CC1(C)C2.Cl (stereo not drawn) ?
Ans: 16.2

Q: Try this compound too: CC1(C)CC2(C)CNC(C)(C1)C2.Cl (stereo not drawn)
Ans: 5.91

Q: Try this compound too: CC1(C)CC(C)(C)CC2(CCCCN2)C1.Cl
Ans: 9.39

====

target: NR1a/2A receptors (Homo sapiens, UniProt Q05586+Q12879); construct: expressed in transfected cells; host or cells: Xenopus laevis oocytes injected with subunit RNA; assay: NMDA receptor subtype expression in Xenopus oocytes, two-electrode voltage clamp; assay type: cell-based; details: Xenopus oocytes; N=6; read-out: NMDA IC50
Where a name gives a salt, the structure may show the parent alone.
property-label: IC50
Quote the value and follow it with the unit of measurement.

Q: Would you mind telling me what IC50 value was observed for CC1CC2(C)CC(C)(C1)C(c1ccccc1)N2 (stereo not shown) [MRZ 2028, hydrochloride] ?
Ans: 10.3 µM

Q: Try this molecule too: CCC1CC2(C)CNC(C)(C1)C2 (stereo not shown) [MRZ 2007, hydrochloride]
Ans: 6.77 µM

Q: Try this molecule too: CCC12CC(C)CC(C)(CN1)C2 (stereo not shown) [MRZ 2023, hydrochloride]
Ans: 16.1 µM

Q: Try this molecule too: CC1CC2(C)CC(C)(C1)C(C)N2 (stereo not shown) [MRZ 2029, hydrochloride]
Ans: 36.1 µM

====

I'd be grateful if you could share measured ED50 at 30 min for these entries.
assay: Myorelaxant action (traction reflex); assay type: in vivo, mice; conditions: mouse, in vivo, ip; NMR female mice, i.p., traction reflex; read-out: Myorelaxation ED50
Lab book: enter the figure in mg/kg, no units written.

Q: Would you mind telling me what ED50 at 30 min value was observed for CC1(C)CC(C)(C)CC2(CCCN2)C1.Cl ?
Ans: 27.5

Q: Try this compound too: CC1(C)CC(C)(C)CC2(CCCCN2)C1.Cl
Ans: 34.5

====

Target: NMDA receptor ([3H]-(+)-MK-801 site)
Test: [3H]-(+)-MK-801 receptor binding, rat cortex membranes
Conditions: glycine 10 μM, glutamate 10 μM, mean, n=3
Method: Male Sprague-Dawley rats (200-250 g) were decapitated and their brains were removed rapidly. The cortex was dissected and homogenized in 20 volumes of ice-cold 0.32 M sucrose using a glass-Teflon homogenizer. […] IC50s in patch clamp and binding studies were calculated according to the four parameter logistic equation using the Grafit computer program (Erithacus Software, England). Ki value for binding studies were then determined according to Cheng and Prusoff. […]
pKi: −log10 of the molar value. Structures can show the parent of a compound that is named as a salt.
Given measured pKi, output condition met if it is greater than or equal to 5 and condition not met if not.

Q: API: above_or_equal(metric=pKi, cutoff=5) for item CC1(C)CC(C)(C)CC2(CCCCN2)C1.Cl [MRZ 2/1013, hydrochloride]
Ans: condition met

Q: Try this molecule too: CCC1CC2(C)CNC(C)(C1)C2 (stereo not shown) [MRZ 2007, hydrochloride]
Ans: condition met

Q: Try this molecule too: CC1(C)CC2(C)CNC(C)(C1)C2.Cl (stereo not shown) [MRZ 2/1010, hydrochloride]
Ans: condition met

Q: Try this molecule too: CCC12CC(C)(C)CC(C)(CN1)C2 (stereo not shown) [MRZ 2022, hydrochloride]
Ans: condition not met

Q: Try this molecule too: CC1CC2(C)CC(C)(C1)C(c1ccccc1)N2 (stereo not shown) [MRZ 2028, hydrochloride]
Ans: condition met

Q: Try this molecule too: CC1CC2(C)CNC(C)(C1)C2 (stereo not shown) [MRZ 2011, hydrochloride]
Ans: condition not met

Q: Try this molecule too: CCC12CC(C)CC(C)(CN1)C2 (stereo not shown) [MRZ 2023, hydrochloride]
Ans: condition not met

====

I'd be grateful if you could share measured ED50 at 30 min for these entries.
Test: Ataxia / motor coordination (rotarod)
Assay type: in vivo, mice
Details: mouse, in vivo, ip; NMR female mice, accelerating rotarod
Method: NMR female mice (18-28 g) housed 5 per cage were used for the maximal electroshock (MES) and motor impairment tests. […] The MES test was performed together with tests for myorelaxant action (traction reflex) and motor coordination (rotarod). […] The presence of tonic convulsions was scored (tonic extension of hind paws with minimum angle to the body of 90[…]). […]
Where a name gives a salt, the structure may show the parent alone.
Lab book: enter the figure in mg/kg, no units written.

Q: Would you mind telling me what ED50 at 30 min value was observed for CCC1CC2(C)CNC(C)(C1)C2 (stereo not shown) [MRZ 2007, hydrochloride] ?
Ans: 50

Q: Try this compound too: CC1(C)CC(C)(C)CC2(CCCCN2)C1.Cl
Ans: 37.2

Q: Try this compound too: CN1CC2(C)CC(C)(C)CC1(C)C2.Cl (stereo not shown)
Ans: 20.6

Q: Try this compound too: CC1(C)CC(C)(C)CC2(CCCN2)C1.Cl
Ans: 24

Q: Try this compound too: CC1(C)CC2(C)CNC(C)(C1)C2.Cl (stereo not shown)
Ans: 24.9

====

I'd be grateful if you could share measured ED50 for these entries.
test system: tonic convulsions (MES); assay: Maximal electroshock (MES) anticonvulsive test; type: in vivo, mice; details: Mus musculus, ip, read-out: MES ED50
Counter-ions that a name gives are not always drawn.

Q: Would you mind telling me what ED50 value was observed for CCC12CC(C)CC(C)(CN1)C2 (stereo not drawn) [MRZ 2023, hydrochloride] ?
Ans: > 30 mg/kg

Q: Try this compound too: CC1CC2(C)CC(C)(C1)C(C)N2 (stereo not drawn) [MRZ 2029, hydrochloride]
Ans: > 50 mg/kg

Q: Try this compound too: CCC1CC2(C)CNC(C)(C1)C2 (stereo not drawn) [MRZ 2007, hydrochloride]
Ans: > 50 mg/kg

====

I'd be grateful if you could share measured ED50 at 30 min for these entries.
assay: Myorelaxant action (traction reflex); type: in vivo, mice; details: mouse, in vivo, ip; NMR female mice, i.p., traction reflex; read-out: Myorelaxation ED50
Where a name gives a salt, the structure may show the parent alone.

Q: Would you mind telling me what ED50 at 30 min value was observed for CCC1CC2(C)CNC(C)(C1)C2 (stereo not drawn) [MRZ 2007, hydrochloride] ?
Ans: > 50 mg/kg

Q: Try this compound too: CC1CC2(C)CC(C)(C1)C(C)N2 (stereo not drawn) [MRZ 2029, hydrochloride]
Ans: > 50 mg/kg

Q: Try this compound too: CCC12CC(C)CC(C)(CN1)C2 (stereo not drawn) [MRZ 2023, hydrochloride]
Ans: > 30 mg/kg

====

molecular target: NMDA receptor ([3H]-(+)-MK-801 site); assay: [3H]-(+)-MK-801 receptor binding, rat cortex membranes; conditions: glycine 10 μM, glutamate 10 μM, mean, n=3
Structures can show the parent of a compound that is named as a salt.
I'd be grateful if you could share measured pKi for these entries.
Entry type: numeric. Quantity: pKi, the -log10 of concentration in molar units.

Q: Would you mind telling me what pKi value was observed for CN1CC2(C)CC(C)(C)CC1(C)C2.Cl (stereo not drawn) [MRZ 2/1003, hydrochloride] ?
Ans: 5.13

Q: Try this compound too: CC1(C)CC(C)(C)CC2(CCCN2)C1.Cl [MRZ 2/1004, hydrochloride]
Ans: 4.98

Q: Try this compound too: CC1CC2(C)CC(C)(C1)C(C)N2 (stereo not drawn) [MRZ 2029, hydrochloride]
Ans: 4.88
